Molecular target: HER2YVMA (Homo sapiens, UniProt P04626, INS775YVMA)
Sequence (P04626 with tags, fused parts or gaps INS775YVMA): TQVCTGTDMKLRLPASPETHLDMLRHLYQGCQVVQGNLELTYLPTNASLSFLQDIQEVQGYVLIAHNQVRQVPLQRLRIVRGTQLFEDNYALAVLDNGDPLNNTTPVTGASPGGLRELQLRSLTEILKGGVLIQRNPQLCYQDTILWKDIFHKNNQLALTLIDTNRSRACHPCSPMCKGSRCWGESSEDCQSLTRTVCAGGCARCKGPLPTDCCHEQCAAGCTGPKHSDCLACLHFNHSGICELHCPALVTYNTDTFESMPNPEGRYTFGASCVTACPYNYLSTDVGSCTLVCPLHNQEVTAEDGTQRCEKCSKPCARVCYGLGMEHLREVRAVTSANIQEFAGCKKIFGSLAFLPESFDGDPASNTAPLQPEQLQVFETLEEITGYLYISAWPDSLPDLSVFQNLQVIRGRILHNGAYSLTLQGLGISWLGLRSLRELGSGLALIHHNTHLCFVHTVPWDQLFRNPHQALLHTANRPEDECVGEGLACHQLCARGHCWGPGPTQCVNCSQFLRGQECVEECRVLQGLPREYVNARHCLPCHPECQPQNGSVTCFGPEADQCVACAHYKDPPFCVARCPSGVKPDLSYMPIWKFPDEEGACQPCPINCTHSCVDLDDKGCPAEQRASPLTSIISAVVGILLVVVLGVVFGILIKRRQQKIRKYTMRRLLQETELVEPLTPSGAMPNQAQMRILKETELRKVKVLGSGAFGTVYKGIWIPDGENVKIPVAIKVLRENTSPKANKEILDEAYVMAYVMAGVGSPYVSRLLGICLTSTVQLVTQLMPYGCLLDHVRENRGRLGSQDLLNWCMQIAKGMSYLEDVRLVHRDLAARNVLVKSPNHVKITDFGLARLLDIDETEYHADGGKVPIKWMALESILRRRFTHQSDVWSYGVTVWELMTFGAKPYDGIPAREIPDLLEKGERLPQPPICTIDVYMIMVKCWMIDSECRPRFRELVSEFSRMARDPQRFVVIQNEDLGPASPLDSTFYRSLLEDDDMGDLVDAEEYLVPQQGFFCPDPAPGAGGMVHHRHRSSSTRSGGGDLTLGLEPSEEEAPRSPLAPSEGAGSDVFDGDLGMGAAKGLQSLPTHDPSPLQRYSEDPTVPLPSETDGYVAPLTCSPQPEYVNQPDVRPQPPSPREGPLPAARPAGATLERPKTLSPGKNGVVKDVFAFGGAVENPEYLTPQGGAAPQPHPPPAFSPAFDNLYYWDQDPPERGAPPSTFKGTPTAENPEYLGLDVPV
Test: HER2 signaling (pHER2) in Hek293-HER2YVMA cells
Format: cell-based
Design: expressed in transfected cells; host or cells: HEK293 (pool), Ba/F3 (clones), BEAS2B (clones); lentiviral vector pCDH-CMV-MCS-EF1-Neo
Settings: 1.5 hr compound, 1% FBS, read-out: HEKYVMA pHER2 EC50
pEC50: −log10 of the molar value.
pEC50 listing for selected compounds.

// known answers, use as guide
| Compound | Measured attribute | Observed measurement |
| --- | --- | --- |
| Cc1cc(Nc2ncnc3sc4c(c23)CCN(C(=O)/C=C/CN(C)C)C4)ccc1Oc1ccc2scnc2c1 [Compound 107] | pEC50 | > 7.00 |
| C=CC(=O)N1Cc2sc3ncnc(Nc4ccc(Oc5ccc(C)nc5)c(C)c4)c3c2C(C)C1 (stereo not shown) [Compound 142] | pEC50 | > 7.00 |
| Cc1cc(Nc2ncnc3sc4c(c23)CCN(C(=O)/C=C/CN(C)C)C4)ccc1Oc1ccn2ccnc2c1 [Compound 126] | pEC50 | > 7.00 |
| Cc1ccc(Oc2ccc(Nc3ncnc4sc5c(c34)CCN(C(=O)/C=C/CN3CC(O)C3)C5)cc2C)cn1 [Compound 53] | pEC50 | 6.46 to 7.00 |
| Cc1ccc(Oc2ccc(Nc3ncnc4sc5c(c34)CN(C(=O)C=CCN(C)C)C5C)cc2C)cn1 (single isomer, unassigned) [Compound 170] | pEC50 | 6.00 to 6.46 |
| Cc1ccc(Oc2ccc(Nc3ncnc4sc5c(c34)CCN(C(=O)/C=C/CN[C@@H](C)CO)C5)cc2C)cn1 [Compound 75] | pEC50 | > 7.00 |

Looking up Cc1ccc(Oc2ccc(Nc3ncnc4sc5c(c34)CCN(C(=O)/C=C/CN(CCO)CCO)C5)cc2C)cn1 [Compound 37] , I see its pEC50 listed as 6.46 to 7.00

---

Target: EGFR (Homo sapiens)
Test: EGFR signaling (pEGFR Tyr1068/total EGFR MSD) in A431 cells
Type: cell-based
Design: endogenous in cells; host or cells: A431, N87
Details: ratio A431 pEGFR EC50 to BT474 pHER2 EC50
Text: In addition to the engineered cell lines, the following cell lines were used: BT474 (human breast carcinoma), N87 (human gastric carcinoma), NCI-H1781 (human lung adenocarcinoma), and A431 (human epidermoid carcinoma); all cell lines were obtained from the American Type Culture Collection (ATCC, Manassas, VA). […]
Measured attribute: Selectivity A431 EC50/BT474 EC50

Known Selectivity A431 EC50/BT474 EC50 results, listed for orientation:
| Compound | Selectivity A431 EC50/BT474 EC50 |
| --- | --- |
| Cc1ccc(Oc2ccc(Nc3ncnc4sc5c(c34)CN(C(=O)C=CCN(C)C)C5C)cc2C)cn1 (single isomer, unassigned) [Compound 170] | B (B: ≥ 20 and < 100) |
| Cc1ccc(Oc2ccc(Nc3ncnc4sc5c(c34)CCN(C(=O)/C=C/CNC3CCC(C(=O)N(C)C)CC3)C5)cc2C)cn1 (centres unmarked) | A (A: ≥100) |
| Cc1cc(Nc2ncnc3sc4c(c23)CCN(C(=O)/C=C/CN2CC3C(CO)C3C2)C4)ccc1Oc1ccc2ncnn2c1 (centres unmarked) | B (B: ≥ 20 and < 100) |
| Cc1ccc(Oc2ccc(Nc3ncnc4sc5c(c34)CCN(C(=O)/C=C/CN3CC(O)CO3)C5)cc2C)cn1 (centres unmarked) | B (B: ≥ 20 and < 100) |

Cc1ccc(Oc2ccc(Nc3ncnc4sc5c(c34)CCN(C(=O)/C=C/CN[C@H]3CC[C@H](OC(F)F)CC3)C5)cc2C)cn1 has a reported Selectivity A431 EC50/BT474 EC50 of A (A: ≥100)

Recorded result, COc1ccc(Oc2ccc(Nc3ncnc4sc5c(c34)CN(C(=O)/C=C/CN(C)C)C5)cc2C)cn1 , Selectivity A431 EC50/BT474 EC50: B (B: ≥ 20 and < 100)

Selectivity A431 EC50/BT474 EC50 in this record for Cc1ccc(Oc2ccc(Nc3ncnc4sc5c(c34)C(C)CN(C(=O)C=CCN3CCOCC3)C5)cc2C)cn1 (single isomer, unassigned) [Compound 176] : B (B: ≥ 20 and < 100)

Lab note: Cc1cc(Nc2ncnc3sc4c(c23)CCN(C(=O)/C=C/CN2CC(C)OC(C)C2C)C4)ccc1Oc1ccc2ncnn2c1 (centres unmarked) gave Selectivity A431 EC50/BT474 EC50 of A (A: ≥100)

For reference, reported Selectivity A431 EC50/BT474 EC50 for C=CC(=O)N1Cc2sc3ncnc(Nc4ccc(Oc5ccc(C)nc5)c(C)c4)c3c2C(C)C1 (centres unmarked) [Compound 142] stands at B (B: ≥ 20 and < 100)

Recorded Selectivity A431 EC50/BT474 EC50 (compound Cc1ccc(Oc2ccc(Nc3ncnc4sc5c(c34)CN(C(=O)/C=C/CN(C)C)C5C)cc2C)cn1 (centres unmarked) ): B (B: ≥ 20 and < 100)

Per the records, this compound ( O=C(/C=C/CN1CCOCC1)N1CCc2c(sc3ncnc(Nc4ccc(Oc5ccc6ncnn6c5)c(Cl)c4)c23)C1 ) has Selectivity A431 EC50/BT474 EC50 equal to B (B: ≥ 20 and < 100)

Form: compound = Cc1ccc(Oc2ccc(Nc3ncnc4sc5c(c34)C(C)CN(C(=O)C=CCN(C)C)C5)cc2C)cn1 (single isomer, unassigned) [Compound 105] ; Selectivity A431 EC50/BT474 EC50 = C (C: ≥ 10 and < 20)

The compound listed as Cc1ccc(Oc2ccc(Nc3ncnc4sc5c(c34)CCN(C(=O)/C=C/CN3CC(O)C3)C5)cc2C)cn1 has a reported Selectivity A431 EC50/BT474 EC50 of C (C: ≥ 10 and < 20)

---

Biological target: EGFR (Homo sapiens, UniProt P00533)
Sequence (P00533 25-1210): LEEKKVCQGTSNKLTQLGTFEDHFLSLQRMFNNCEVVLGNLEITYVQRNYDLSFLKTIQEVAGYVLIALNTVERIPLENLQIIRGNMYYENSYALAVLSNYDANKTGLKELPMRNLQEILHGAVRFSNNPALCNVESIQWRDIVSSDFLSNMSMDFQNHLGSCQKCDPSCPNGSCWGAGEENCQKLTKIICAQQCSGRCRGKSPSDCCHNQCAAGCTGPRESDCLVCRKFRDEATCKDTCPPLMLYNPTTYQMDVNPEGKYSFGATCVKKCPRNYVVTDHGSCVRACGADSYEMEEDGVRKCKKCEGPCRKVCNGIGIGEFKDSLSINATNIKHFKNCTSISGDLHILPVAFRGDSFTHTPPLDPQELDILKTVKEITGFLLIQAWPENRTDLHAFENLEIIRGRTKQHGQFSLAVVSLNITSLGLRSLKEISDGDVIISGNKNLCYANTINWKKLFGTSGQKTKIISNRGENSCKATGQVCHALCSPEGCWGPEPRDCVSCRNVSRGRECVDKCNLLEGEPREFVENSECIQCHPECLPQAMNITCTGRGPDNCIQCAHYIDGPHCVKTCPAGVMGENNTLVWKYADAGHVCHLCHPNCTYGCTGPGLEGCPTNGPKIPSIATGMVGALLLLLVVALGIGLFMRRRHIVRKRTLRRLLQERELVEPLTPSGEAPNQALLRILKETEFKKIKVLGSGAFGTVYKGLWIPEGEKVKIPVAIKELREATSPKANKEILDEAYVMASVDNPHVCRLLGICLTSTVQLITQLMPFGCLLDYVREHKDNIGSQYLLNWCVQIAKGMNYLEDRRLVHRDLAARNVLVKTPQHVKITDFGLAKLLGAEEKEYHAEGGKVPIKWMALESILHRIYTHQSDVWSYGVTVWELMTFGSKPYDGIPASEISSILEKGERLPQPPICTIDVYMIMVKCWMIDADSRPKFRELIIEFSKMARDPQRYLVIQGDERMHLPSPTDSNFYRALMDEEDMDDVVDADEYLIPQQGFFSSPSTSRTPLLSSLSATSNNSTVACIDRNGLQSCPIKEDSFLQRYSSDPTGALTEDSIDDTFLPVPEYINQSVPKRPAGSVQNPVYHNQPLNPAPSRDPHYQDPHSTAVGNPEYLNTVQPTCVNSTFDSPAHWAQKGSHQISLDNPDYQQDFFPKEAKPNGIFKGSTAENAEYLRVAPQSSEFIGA
Test: EGFR signaling (pEGFR Tyr1068/total EGFR MSD) in A431 cells
Format: cell-based
Set-up: endogenous in cells; host or cells: A431, N87
Conditions: ratio A431 pEGFR EC50 to HEK YVMA pHER2 EC50
Measured attribute: Selectivity A431 EC50/HEKYVMA EC50

| Compound | Selectivity A431 EC50/HEKYVMA EC50 |
| --- | --- |
| Cc1ccc(Oc2ccc(Nc3ncnc4sc5c(c34)CCN(C(=O)/C=C/CN3CC[C@@H](CO)C3)C5)cc2C)cn1 | C (C: ≥ 10 and < 20) |
| Cc1cc(Nc2ncnc3sc4c(c23)CCN(C(=O)/C=C/CN(C)C)C4)ccc1Oc1ccc2[nH]ncc2c1 | E (E: >1 and < 5) |
| C=CC(=O)N1CCc2c(sc3ncnc(Nc4ccc(Oc5cccnc5)c(C)c4)c23)C1 | E (E: >1 and < 5) |
| Cc1ccc(Oc2ccc(Nc3ncnc4sc5c(c34)CCN(C(=O)/C=C/CN3CC4CCC3C4)C5)cc2C)cn1 (stereo not drawn) | E (E: >1 and < 5) |
| Cc1cc(Nc2ncnc3sc4c(c23)CN(C(=O)/C=C/CN(C)C)CC4)ccc1Oc1ccc2ncnn2c1 | B (B: ≥ 20 and < 100) |
| Cc1ccc(Oc2ccc(Nc3ncnc4sc5c(c34)C(C)N(C(=O)/C=C/CN(C)C)C5)cc2C)cn1 (stereo not drawn) | B (B: ≥ 20 and < 100) |

Considering Cc1ccc(Oc2ccc(Nc3ncnc4sc5c(c34)CCN(C(=O)/C=C/CN3CC4(C3)CS(=O)(=O)C4)C5)cc2C)cn1 , its Selectivity A431 EC50/HEKYVMA EC50 with EGFR (Homo sapiens, UniProt P00533) was recorded as D (D: ≥ 5 and < 10)

Selectivity A431 EC50/HEKYVMA EC50 of Cc1ccc(Oc2ccc(Nc3ncnc4sc5c(c34)CCN(C(=O)/C=C/CN(CCO)CCO)C5)cc2C)cn1 , assay on EGFR (Homo sapiens, UniProt P00533), is B (B: ≥ 20 and < 100)

Entry Cc1ccc(Oc2ccc(Nc3ncnc4sc5c(c34)CCN(C(=O)/C=C/CN3CCCC(F)(CO)C3)C5)cc2C)cn1 (stereo not drawn) under EGFR (Homo sapiens, UniProt P00533) had Selectivity A431 EC50/HEKYVMA EC50 of E (E: >1 and < 5)

Reported Selectivity A431 EC50/HEKYVMA EC50 (EGFR (Homo sapiens, UniProt P00533)) for entry COc1ccc(Oc2ccc(Nc3ncnc4sc5c(c34)C(C)CN(C(=O)C=CCN(C)C)C5)cc2C)cn1 (single isomer, unassigned) [Compound 159] is E (E: >1 and < 5)

For Cc1ccc(Oc2ccc(Nc3ncnc4sc5c(c34)C(C)N(C(=O)C=CCN(C)C)C5)cc2C)cn1 (single isomer, unassigned) [Compound 147] on EGFR (Homo sapiens, UniProt P00533), measured Selectivity A431 EC50/HEKYVMA EC50 was D (D: ≥ 5 and < 10)

For the compound COc1ccc(Oc2ccc(Nc3ncnc4sc5c(c34)C(C)CN(C(=O)C=CCN(C)C)C5)cc2C)cn1 (single isomer, unassigned) [Compound 160] , the measured Selectivity A431 EC50/HEKYVMA EC50 on EGFR (Homo sapiens, UniProt P00533) was D (D: ≥ 5 and < 10)

Observed Selectivity A431 EC50/HEKYVMA EC50, EGFR (Homo sapiens, UniProt P00533), Cc1ccc(Oc2ccc(Nc3ncnc4sc5c(c34)CCN(C(=O)/C=C/CN3CCO[C@H](CO)C3)C5)cc2C)cn1 : C (C: ≥ 10 and < 20)

Field Selectivity A431 EC50/HEKYVMA EC50 (EGFR (Homo sapiens, UniProt P00533)), entry Cc1cc(Nc2ncnc3sc4c(c23)CCN(C(=O)/C=C/CN(C)C)C4)ccc1Oc1ccc2nccn2c1 : E (E: >1 and < 5)

Query Cc1ccc(Oc2ccc(Nc3ncnc4sc5c(c34)C(C)CN(C(=O)C=CCN(C)C)C5)cc2C)cn1 (single isomer, unassigned) [Compound 106] on EGFR (Homo sapiens, UniProt P00533); Selectivity A431 EC50/HEKYVMA EC50 returned: C (C: ≥ 10 and < 20)

Log: EGFR (Homo sapiens, UniProt P00533), compound Cc1ccc(Oc2ccc(Nc3ncnc4sc5c(c34)CN(C(=O)/C=C/CN(C)C)C5)cc2C)cn1 , Selectivity A431 EC50/HEKYVMA EC50 = B (B: ≥ 20 and < 100)

Sample Cc1ccc(Oc2ccc(Nc3ncnc4sc5c(c34)CCN(C(=O)/C=C/CNCc3cc(C)n[nH]3)C5)cc2C)cn1 , system: EGFR (Homo sapiens, UniProt P00533). Its Selectivity A431 EC50/HEKYVMA EC50 is D (D: ≥ 5 and < 10)

Kindly note: EGFR (Homo sapiens, UniProt P00533), Cc1ccc(Oc2ccc(Nc3ncnc4sc5c(c34)CCN(C(=O)/C=C/CN3CCC(CO)(CO)CC3)C5)cc2C)cn1 , Selectivity A431 EC50/HEKYVMA EC50 value reported: D (D: ≥ 5 and < 10)

Simply: CCOC/C=C/C(=O)N1CCc2c(sc3ncnc(Nc4ccc(Oc5ccc(C)nc5)c(C)c4)c23)C1 , EGFR (Homo sapiens, UniProt P00533), Selectivity A431 EC50/HEKYVMA EC50 = D (D: ≥ 5 and < 10)

The compound Cc1ccc(Oc2ccc(Nc3ncnc4sc5c(c34)CCN(C(=O)/C=C/CN(C)C(C)(C)C)C5)cc2C)cn1 , when measured on EGFR (Homo sapiens, UniProt P00533), yielded Selectivity A431 EC50/HEKYVMA EC50 of C (C: ≥ 10 and < 20)

Selectivity A431 EC50/HEKYVMA EC50 of Cc1ccc(Oc2ccc(Nc3ncnc4sc5c(c34)CCN(C(=O)/C=C/CN3CCC(O)C(C)(C)C3)C5)cc2C)cn1 (stereo not drawn) , assay on EGFR (Homo sapiens, UniProt P00533), is B (B: ≥ 20 and < 100)

Considering Cc1cc(Nc2ncnc3sc4c(c23)CCN(C(=O)/C=C/CN(C)C)CC4)ccc1Oc1ccn2ccnc2c1 , its Selectivity A431 EC50/HEKYVMA EC50 with EGFR (Homo sapiens, UniProt P00533) was recorded as C (C: ≥ 10 and < 20)
